What inhibition was measured for each of the following?
Target: 5'-AMP-activated protein kinase catalytic subunit alpha-2 (Homo sapiens)
Conditions: at 1 µM
Description: GSK_PKIS: AMPKA2 (A2B1G1) mean inhibition at 1 uM [Nanosyn]
Write down the numeric answer in % and omit the unit.

Query string: Could you please provide reported inhibition for `Cc1cc(O)cc(C)c1/C=C/c1cncc(C(=O)N(C)C)c1` ? Thanks!
Result string: 4.38

Query string: Could you please provide reported inhibition for `CN(C)c1cc2c(Nc3ccc4c(cnn4Cc4ccccc4)c3)ncnc2cn1` ? Thanks!
Result string: 2.49

Query string: Could you please provide reported inhibition for `NS(=O)(=O)c1ccc(N/N=C2\C(=O)Nc3ccc(Cl)cc32)cc1` ? Thanks!
Result string: 12.9

Query string: Could you please provide reported inhibition for `Nc1nccc(-c2c(-c3ccc(F)cc3)ncn2CCCN2CCOCC2)n1` ? Thanks!
Result string: 4.51

Query string: Could you please provide reported inhibition for `CN(C)C(=O)O[C@@H]1CN[C@@H](C#Cc2cc3ncnc(Nc4ccc(OCc5cccc(F)c5)c(Cl)c4)c3s2)C1` ? Thanks!
Result string: 3.03

Query string: Could you please provide reported inhibition for `CS(=O)(=O)Nc1cccc(-c2ccc3c(NC(=O)C4CC4)n[nH]c3c2)c1` ? Thanks!
Result string: 6.02

Query string: Could you please provide reported inhibition for `O=S(=O)(CCOCc1ccc(-c2ccc3ncnc(Nc4ccc(OCc5cccc(F)c5)c(Cl)c4)c3c2)o1)c1ccccc1` ? Thanks!
Result string: 1.68

Query string: Could you please provide reported inhibition for `Cc1cc(-c2ccccn2)cc(C)c1/C=C/c1cncc(-c2nn[nH]n2)c1` ? Thanks!
Result string: 3.78

Query string: Could you please provide reported inhibition for `FC(F)(F)c1ccc(-c2nn3ncccc3c2-c2ccnc(Nc3ccc4c(c3)OCCO4)n2)cc1` ? Thanks!
Result string: 4.55

Query string: Could you please provide reported inhibition for `c1ccc(Nc2ncc(-c3ccccc3)o2)cc1` ? Thanks!
Result string: 0.19

Query string: Could you please provide reported inhibition for `COc1cccc(-n2nc(C)c3c(N/N=C(\C)c4ccncc4)ncnc32)c1` ? Thanks!
Result string: 1.4

Query string: Could you please provide reported inhibition for `NS(=O)(=O)c1cccc(Nc2cc(-c3ccc(F)cc3)n[nH]2)c1` ? Thanks!
Result string: 10.9

Query string: Could you please provide reported inhibition for `Nc1ccc(C#Cc2cncnc2Nc2ccc(OCc3cccc(F)c3)c(Cl)c2)cc1` ? Thanks!
Result string: 2.03

Query string: Could you please provide reported inhibition for `Nc1nccc(C#Cc2cncnc2Nc2ccc(OCc3cccc(F)c3)c(Cl)c2)n1` ? Thanks!
Result string: 6.02

Query string: Could you please provide reported inhibition for `Cc1ccc(NC(=O)CC2CC2)cc1-c1ccc(C(=O)NCC2CC2)cc1` ? Thanks!
Result string: 3.66

Query string: Could you please provide reported inhibition for `c1ccc(Cc2nc3ccc(Nc4ncnc5ccccc45)cc3[nH]2)cc1` ? Thanks!
Result string: 2.91

Query string: Could you please provide reported inhibition for `CN(c1ccc(NC(=O)Nc2ccc(OC(F)(F)F)cc2)cc1)c1ccnc(Nc2cccc(S(N)(=O)=O)c2)n1` ? Thanks!
Result string: 2.41

Query string: Could you please provide reported inhibition for `Cc1ccc(C(=O)NC2CC2)cc1-c1ccc2[nH]ncc2c1` ? Thanks!
Result string: -3.42

Query string: Could you please provide reported inhibition for `CN(C)CCCn1c(-c2nonc2N)nc2cnccc21` ? Thanks!
Result string: 5.42

Query string: Could you please provide reported inhibition for `COc1cc2ncnc(Nc3ccc4c(cnn4Cc4ccccc4)c3)c2cc1OC` ? Thanks!
Result string: 3.91

Query string: Could you please provide reported inhibition for `NC(=O)c1sc(-n2cnc3ccccc32)cc1OCc1ccccc1Br` ? Thanks!
Result string: 4.98

Query string: Could you please provide reported inhibition for `NS(=O)(=O)c1ccc(Nc2cc(-c3cccc(O)c3)n[nH]2)cc1` ? Thanks!
Result string: 9.57

Query string: Could you please provide reported inhibition for `CCS(=O)(=O)c1ccc(OC)c(Nc2nccc(N(C)c3ccc4c(C)n[nH]c4c3)n2)c1` ? Thanks!
Result string: 3.91

Query string: Could you please provide reported inhibition for `NS(=O)(=O)c1cccc(-c2cc3ccncc3cc2OCc2ccccc2)c1` ? Thanks!
Result string: 7.06

Query string: Could you please provide reported inhibition for `COc1cccc(-n2ncc3c(N/N=C/c4ccc(C)cc4)ncnc32)c1` ? Thanks!
Result string: 6

Query string: Could you please provide reported inhibition for `Cc1cc(Cl)cc2c1NC(=O)C2=NNc1ccc(S(N)(=O)=O)cc1` ? Thanks!
Result string: 1.04

Query string: Could you please provide reported inhibition for `CC(C)c1ccc(Nc2nccc(-c3cnn4ncccc34)n2)cc1` ? Thanks!
Result string: 4.11

Query string: Could you please provide reported inhibition for CCCN1CCCC(c2ccc(Nc3nc(Nc4cc(F)ccc4C(N)=O)c4cc[nH]c4n3)c(OC)c2)C1 (stereo unspecified) ? Thanks!
Result string: 10.7

Query string: Could you please provide reported inhibition for `CC(C)c1ccc2c(c1)NC(=O)/C2=N/Nc1ccc(S(N)(=O)=O)cc1` ? Thanks!
Result string: 0.27

Query string: Could you please provide reported inhibition for `O=C(Nc1ccc(Oc2ccc3[nH]c(NC(=O)c4ccco4)nc3c2)cc1)Nc1cc(C(F)(F)F)ccc1F` ? Thanks!
Result string: 3.81

Query string: Could you please provide reported inhibition for `CN(C)C(=O)O[C@H]1CN[C@H](C#Cc2cc3ncnc(Nc4ccc(OCc5cccc(F)c5)c(Cl)c4)c3s2)C1` ? Thanks!
Result string: 3.32

====

Biological target: Cyclin-dependent kinase 2 (Homo sapiens) (UniProt P24941)
Details: at 0.1 µM
What inhibition was measured for each of the following?
Write down the numeric answer in % and omit the unit.

Query string: Specify the recorded inhibition for `c1ccc(Cc2nc3ccc(Nc4ncnc5ccccc45)cc3[nH]2)cc1` , system: Cyclin-dependent kinase 2 (Homo sapiens) (UniProt P24941).
Result string: 2.89

Query string: Specify the recorded inhibition for `COC(=O)Nc1nc2cc(Oc3ccc(NC(=O)Nc4cccc(Br)c4)cc3)ccc2[nH]1` , system: Cyclin-dependent kinase 2 (Homo sapiens) (UniProt P24941).
Result string: 3.2

Query string: Specify the recorded inhibition for `COC(=O)c1cncc(/C=C/c2c(C)cc(O)cc2C)c1` , system: Cyclin-dependent kinase 2 (Homo sapiens) (UniProt P24941).
Result string: 2.61

Query string: Specify the recorded inhibition for `Cc1nc(-c2ccccc2)n2nc(NCCCN3CCOCC3)ncc12` , system: Cyclin-dependent kinase 2 (Homo sapiens) (UniProt P24941).
Result string: 2.24

Query string: Specify the recorded inhibition for `CN(C)CCCn1c(-c2nonc2N)nc2cnccc21` , system: Cyclin-dependent kinase 2 (Homo sapiens) (UniProt P24941).
Result string: 2.53

Query string: Specify the recorded inhibition for `CC(C)c1ccc2c(c1)NC(=O)/C2=N/Nc1ccc(S(N)(=O)=O)cc1` , system: Cyclin-dependent kinase 2 (Homo sapiens) (UniProt P24941).
Result string: 5.99

Query string: Specify the recorded inhibition for `CC(C)c1ccc(Nc2nccc(-c3cnn4ncccc34)n2)cc1` , system: Cyclin-dependent kinase 2 (Homo sapiens) (UniProt P24941).
Result string: 19.8

Query string: Specify the recorded inhibition for CCCN1CCCC(c2ccc(Nc3nc(Nc4cc(F)ccc4C(N)=O)c4cc[nH]c4n3)c(OC)c2)C1 (stereo not given) , system: Cyclin-dependent kinase 2 (Homo sapiens) (UniProt P24941).
Result string: 2.13

Query string: Specify the recorded inhibition for `Cc1ccc(O)cc1Nc1ccnc2ccc(S(C)(=O)=O)cc12` , system: Cyclin-dependent kinase 2 (Homo sapiens) (UniProt P24941).
Result string: 2.82

Query string: Specify the recorded inhibition for `Cc1cc(O)cc(C)c1/C=C/c1cncc(C(=O)N(C)C)c1` , system: Cyclin-dependent kinase 2 (Homo sapiens) (UniProt P24941).
Result string: 2.51

Query string: Specify the recorded inhibition for `CS(=O)(=O)CCNCc1nc(-c2ccc3ncnc(Nc4ccc(OCc5cccc(C(F)(F)F)c5)cc4)c3c2)cs1` , system: Cyclin-dependent kinase 2 (Homo sapiens) (UniProt P24941).
Result string: 1.96

Query string: Specify the recorded inhibition for `COc1ccc2ncnc(Nc3ccc(OCc4ccccc4)cc3)c2c1` , system: Cyclin-dependent kinase 2 (Homo sapiens) (UniProt P24941).
Result string: 1.36

Query string: Specify the recorded inhibition for `COc1cccc(-n2ncc3c(N/N=C/c4ccc(S(C)(=O)=O)cc4)ncnc32)c1` , system: Cyclin-dependent kinase 2 (Homo sapiens) (UniProt P24941).
Result string: 32.1

Query string: Specify the recorded inhibition for `C[C@@H](Oc1cc(-n2cnc3ccc(OCC4CCN(C)CC4)cc32)sc1C(N)=O)c1ccccc1C(F)(F)F` , system: Cyclin-dependent kinase 2 (Homo sapiens) (UniProt P24941).
Result string: -0.78

Query string: Specify the recorded inhibition for `NC(=O)c1sc(-n2cnc3ccccc32)cc1OCc1ccccc1Br` , system: Cyclin-dependent kinase 2 (Homo sapiens) (UniProt P24941).
Result string: 7.43

Query string: Specify the recorded inhibition for `CS(=O)(=O)Nc1cccc(-c2ccc3c(NC(=O)C4CC4)n[nH]c3c2)c1` , system: Cyclin-dependent kinase 2 (Homo sapiens) (UniProt P24941).
Result string: 1.58

Query string: Specify the recorded inhibition for `FC(F)(F)c1ccc(-c2nn3ncccc3c2-c2ccnc(Nc3ccc4c(c3)OCCO4)n2)cc1` , system: Cyclin-dependent kinase 2 (Homo sapiens) (UniProt P24941).
Result string: 1.49

Query string: Specify the recorded inhibition for `COc1cc2ncn(-c3cc(OCc4ccccc4S(C)(=O)=O)c(C#N)s3)c2cc1OC` , system: Cyclin-dependent kinase 2 (Homo sapiens) (UniProt P24941).
Result string: 2.46

Query string: Specify the recorded inhibition for `COC(=O)c1ccc2c(c1)C(=Cc1cc(Br)c(O)c(Br)c1)C(=O)N2` , system: Cyclin-dependent kinase 2 (Homo sapiens) (UniProt P24941).
Result string: 8.07

Query string: Specify the recorded inhibition for `[O-][S+]1CCN(Cc2ccc(-c3ccc4ncnc(Nc5ccc(OCc6ccccc6)c(Cl)c5)c4c3)o2)CC1` , system: Cyclin-dependent kinase 2 (Homo sapiens) (UniProt P24941).
Result string: 2.81

Query string: Specify the recorded inhibition for `C[C@@H](Oc1cc(-n2cnc3ccc(OC[C@@H](O)CO)cc32)sc1C(N)=O)c1ccccc1Cl` , system: Cyclin-dependent kinase 2 (Homo sapiens) (UniProt P24941).
Result string: 1.64

Query string: Specify the recorded inhibition for `O=C1Nc2ccccc2/C1=C/Nc1ccc2[nH]c(=O)[nH]c2c1` , system: Cyclin-dependent kinase 2 (Homo sapiens) (UniProt P24941).
Result string: 2.91

Query string: Specify the recorded inhibition for `OCc1ccc(-c2nc(-c3ccccn3)c(-c3ccc4c(c3)OCO4)[nH]2)cc1` , system: Cyclin-dependent kinase 2 (Homo sapiens) (UniProt P24941).
Result string: 1.49

Query string: Specify the recorded inhibition for `ON=C1CCc2cc(-c3nc(C4CCNCC4)[nH]c3-c3ccncc3)ccc21` , system: Cyclin-dependent kinase 2 (Homo sapiens) (UniProt P24941).
Result string: 0.63

Query string: Specify the recorded inhibition for `NC(=O)c1cccc(Nc2nccc(Nc3cccc(F)c3)n2)c1` , system: Cyclin-dependent kinase 2 (Homo sapiens) (UniProt P24941).
Result string: 2.07

Query string: Specify the recorded inhibition for `O=S(=O)(CCOCc1ccc(-c2ccc3ncnc(Nc4ccc(OCc5cccc(F)c5)c(Cl)c4)c3c2)o1)c1ccccc1` , system: Cyclin-dependent kinase 2 (Homo sapiens) (UniProt P24941).
Result string: 2.29

Query string: Specify the recorded inhibition for `Cc1ccc(NC(=O)CC2CC2)cc1-c1ccc(C(=O)NCC2CC2)cc1` , system: Cyclin-dependent kinase 2 (Homo sapiens) (UniProt P24941).
Result string: -1.15

Query string: Specify the recorded inhibition for `Cc1cc(Cl)cc2c1NC(=O)C2=NNc1ccc(S(N)(=O)=O)cc1` , system: Cyclin-dependent kinase 2 (Homo sapiens) (UniProt P24941).
Result string: 1.27

Query string: Specify the recorded inhibition for `NS(=O)(=O)c1ccc(N/N=C2\C(=O)Nc3ccc(Cl)cc32)cc1` , system: Cyclin-dependent kinase 2 (Homo sapiens) (UniProt P24941).
Result string: 46.7

Query string: Specify the recorded inhibition for `CN(C)C(=O)O[C@@H]1CN[C@@H](C#Cc2cc3ncnc(Nc4ccc(OCc5cccc(F)c5)c(Cl)c4)c3s2)C1` , system: Cyclin-dependent kinase 2 (Homo sapiens) (UniProt P24941).
Result string: 0.82

Query string: Specify the recorded inhibition for `O=C(Nc1ccc(Oc2ccc3[nH]c(NC(=O)c4ccco4)nc3c2)cc1)Nc1cc(C(F)(F)F)ccc1F` , system: Cyclin-dependent kinase 2 (Homo sapiens) (UniProt P24941).
Result string: -3.1

Query string: Specify the recorded inhibition for `Nc1ccc(C#Cc2cncnc2Nc2ccc(OCc3cccc(F)c3)c(Cl)c2)cc1` , system: Cyclin-dependent kinase 2 (Homo sapiens) (UniProt P24941).
Result string: 1.4

Query string: Specify the recorded inhibition for `CCn1c(-c2nonc2N)nc2c(C#CC(C)(C)O)nc(OCCNC)cc21` , system: Cyclin-dependent kinase 2 (Homo sapiens) (UniProt P24941).
Result string: 3.96

Query string: Specify the recorded inhibition for `N#Cc1c(NC(=O)c2ccccc2F)sc2c1CCCC2` , system: Cyclin-dependent kinase 2 (Homo sapiens) (UniProt P24941).
Result string: -0.45

Query string: Specify the recorded inhibition for `Cc1ccc2c(-c3ccnc(Nc4ccc5c(c4)OCCO5)n3)c(-c3ccc(C(F)(F)F)cc3)nn2n1` , system: Cyclin-dependent kinase 2 (Homo sapiens) (UniProt P24941).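 Also: mean inhibition of CDK2 bound to cyclin A, from the GSK PKIS kinase inhibitor set screen.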
Result string: -0.16

Source: ChEMBL document CHEMBL1961873
